Test system: MS2 coat protein
ASSAY_EXPLANATION: apparent KD of MS2 coat protein, switch OFF state (with FMN for OFF switches, without FMN for ON switches); designed switch direction (-1 OFF switch, 1 ON switch): -1; higher = weaker reporter binding
SETTINGS: FMN input: 0 or 200 uM; Eterna round: R93 (includes R88 designs)
RECORDED_METRIC: apparent KD of MS2 coat protein (nM)
Just the number in nM, nothing appended.

(Q) Name the recorded apparent KD of MS2 coat protein for AAAAAACAUGAGGAUCACCCAUGUAAGGAUAUCUAAAAUAAAAGAAAAAUAAAGAAAAGGAGAAGGUACAUGGA [JL wbt mod 22] .
(A) 15.6

(Q) Name the recorded apparent KD of MS2 coat protein for AAAAAACAUGAGGAUCACCCAUGUAAGGAUAUGCAAAAAAUGGGUAAAAGGGUAAAAAGCAGAAGGUACAAAAA [scarecrow1] .
(A) 92.1

(Q) Name the recorded apparent KD of MS2 coat protein for AAAAAGUGAGGAUAUAGCAAAGGUCACGAAAGUGACAAAGGCUAGAAGGCACAUGAGGAUCACCCAUGUAAAAA [Fiskers Exclusion 4 D2 63% 1] .
(A) 34.9

###

Assignment: determine reported apparent KD of MS2 coat protein for the given sequences.
Test system: MS2 coat protein
ASSAY_EXPLANATION: apparent KD of MS2 coat protein; designed switch direction (-1 OFF switch, 1 ON switch): -1; higher = weaker reporter binding
SETTINGS: Eterna round: R95; input ligand: FMN 200 uM
Just the number in nM, nothing appended.

(Q) Name the recorded apparent KD of MS2 coat protein for AAAACGGCAGGAUAUACAUGAGGAUCACCCAUGUGAAAUAAAAUAAAAUAAAAUAAAAGUAGAAGGGCCAAAAA [Exclusion 3 #3] (puzzle: Exclusion 3) .
(A) 40.4

(Q) Name the recorded apparent KD of MS2 coat protein for AAGAAACAUGAGGAUCACCCAUGUGAGGAUAUGAGUAAGAAAAGAAAAGAAAGAAGACUCAGAAGGCACAAAGG [salish99-ex1_r3_074] (puzzle: Exclusion 1) .
(A) 135

(Q) Name the recorded apparent KD of MS2 coat protein for UUUAAUUUUUUUUUUUUACAAGCUUUUUGCUCGUCUUAUACAUGAGGAUCACCCAUGUGGAUGGGAGAUAAAUUAUC [JMF 19] (puzzle: Sensor v3, turn-off variant 2) .
(A) 30.9

###

Tested on: MS2 coat protein
ASSAY_EXPLANATION: apparent KD of MS2 coat protein; designed switch direction (-1 OFF switch, 1 ON switch): -1; higher = weaker reporter binding
SETTINGS: input ligand: microRNA oligo, concentration not stated
Assignment: determine reported apparent KD of MS2 coat protein for the given sequences.
Kindly format the answer as number then unit.

(Q) Name the recorded apparent KD of MS2 coat protein for UUAUUAAGUGUGAGGAUAUGCUGGUCCUUGGAUCAGCAGAAGGCACAUGAGGAUCACCCAUGUACAAUAUAUUA [Mat - Exclusion 4 - JL Mod - D30] (Eterna round: R96, puzzle: Brourd's mod of Exclusion 4) .
(A) 30.5 nM

(Q) Name the recorded apparent KD of MS2 coat protein for UCGCUCCGUGUAGGAUAUCGCCGUACCACUCGGCGAGAAGGACAUGAGGAUCACCCAUGUAUGUUAUUAUCACGUGUGGCGCGC [Design 52] (Eterna round: R96, puzzle: Exclusion NG 1) .
(A) 19 nM

(Q) Name the recorded apparent KD of MS2 coat protein for UCGCUCCGUGUAGGAUAUCGCCGUUCUAUUCGGCGAGAAGGACAUGAGGAUCACCCAUGUAUGUUAUUAUCACGCGUGGCGCAA [Design 58] (Eterna round: R96, puzzle: Exclusion NG 1) .
(A) 12.5 nM

(Q) Name the recorded apparent KD of MS2 coat protein for AUUUAAUUUAAUAAGAUCACAUGAGGAUCACCCAUGUAUAUAUAGGAUAUCAGCUCGAAUAGAGCUGAGAAGGAUAUAUACAUG [ExNG3/8-A4] (Eterna round: R96, puzzle: Exclusion NG 3) .
(A) 15.4 nM

(Q) Name the recorded apparent KD of MS2 coat protein for UUGUUAUAUGAAGGAUAUACUUAACAUGAGGAUCACCCAUGUGGUGUUGUGAGUGAGUGAGUUUAGUAGAAGGUCAAUUCUUUU [JMF's solution 94] (Eterna round: R96, puzzle: Exclusion NG 2) .
(A) 440 nM

###

Test system: MS2 coat protein
ASSAY_EXPLANATION: apparent KD of MS2 coat protein; designed switch direction (-1 OFF switch, 1 ON switch): -1; higher = weaker reporter binding
SETTINGS: Eterna round: R95; input ligand: microRNA oligo, concentration not stated
Assignment: determine reported apparent KD of MS2 coat protein for the given sequences.
Just the number in nM, nothing appended.

(Q) Name the recorded apparent KD of MS2 coat protein for CCAUCGUGUGUGAGGAUAUGCUGGUCCUUGGAUCAGCAGAAGGCACAUGAGGAUCACCCAUGUGAAUACGGUGG [JL bmx4 3.21] (puzzle: Brourd's mod of Exclusion 4) .
(A) 17.8

(Q) Name the recorded apparent KD of MS2 coat protein for GUGAAGUGAGGAUAUAUGAGAGAGGCUGAACCGGACGAGAAGUAGAAGGCACAUGAGGAUCACCCAUGUAAGGG [JR_Exclu4_Sub024] (puzzle: Exclusion 4) .
(A) 255

(Q) Name the recorded apparent KD of MS2 coat protein for AAUAACAGAGGAUAUACUGUUUUAUGUGUUUAUUAUUUUAAACAUGAGGAUCACCCAUGUAGAAGGCUGAAUAA [JMF 13] (puzzle: Exclusion 2) .
(A) 37

(Q) Name the recorded apparent KD of MS2 coat protein for UAUUAACAAGCAAGAUCCUACAUGAGGAUCACCCAUGUGCUCGUCUUGUAAGGUACUGUGACGAAAGUCACGGUACC [Sensor 3, v1 - 71] (puzzle: Sensor v3, turn-off variant 1) .
(A) 232

(Q) Name the recorded apparent KD of MS2 coat protein for ACUAGAUGAGGAUAUGCAUAUUUUCGUGUUCUUCUAGGUUAACAUGAGGAUCACCCAUGUAGAAGGCGUCUAUA [Exclusion 2 - 22] (puzzle: Exclusion 2) .
(A) 21.3

###

Test system: K4 kissing-loop RNA reporter;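 also: bound reporter read as fluorescence of individual clusters on recovered sequencing chips by microscopy, with normalized cluster intensities fitted with a binding model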
ASSAY_EXPLANATION: apparent KD of K4 kissing-loop reporter; higher = weaker reporter binding
SETTINGS: Eterna round: R107; input ligand: none
Assignment: determine reported apparent KD of K4 kissing-loop reporter for the given sequences.
Just the number in nM, nothing appended.

(Q) Name the recorded apparent KD of K4 kissing-loop reporter for CCGACUGCAGGAAGGAGCGGCGGUUGGAGUGAUGUUCCGGGUAGUGAUGUUACCAAACUCCGCCAGGUAGGUCGCCUGUUGCUCG [Same State Arginine B GF10] .
(A) 165

(Q) Name the recorded apparent KD of K4 kissing-loop reporter for GGAGGGAUCUCGGCCGCCACUCAUAAGAAAUGAACCUAAGAAAUAUAGUGAUGUUAUAUAAAGAAGAGGACCGGGAGAAAGGAGG [ExTryptoB.A] .
(A) 197

(Q) Name the recorded apparent KD of K4 kissing-loop reporter for GGGAGUAGUGCGGCCGCCACUGUGAAAGAAGAAGAAUAUAGUGAUGUUAUAUAGGAAUUAAAGAAUAGGACCGGGCAUUAGAUUU [SSTRyptB.Q] .
(A) 260

(Q) Name the recorded apparent KD of K4 kissing-loop reporter for UAUAAUUCGGCGGCCGCCACUGACCAUAGCCUUCGAUGGCCAGUGAUGUUGGCCUCUGGCUCUAACAGGACCGGGCCGAAUUGCG [Aririmaus] .
(A) 260

(Q) Name the recorded apparent KD of K4 kissing-loop reporter for UUGGCCCGGCCGGAAGGCCGGGCCUGCGAGCGAGGACCGGUACGGCCGCCACUCGGCGCAGUGAUGUUGCGUGGCCGCAAGGCCG [#2 Exclusion - Tryptophan A Attempt #1 (HarryS)] .
(A) 439

(Q) Name the recorded apparent KD of K4 kissing-loop reporter for UGCACGUAGUGAUGUUACAGCAAGUUUAUGAAGGAUAUGAGGUUAGUCAGAAGGUCAGCCGUCUCGUUGUAAGCACCUUAUCAUU [theeternabot_exclusion_KL_FMN_A_14] .
(A) 232

(Q) Name the recorded apparent KD of K4 kissing-loop reporter for GGUACAGCGGAAGGAUAUCUGUCAUGGACGAUCGUAGCUUGAGCUCCCUGAGUGAUGUUUAGGAUGAGAGAAGGUCCACUCGUAU [theeternabot_exclusion_KL_FMN_B_2] .
(A) 591

(Q) Name the recorded apparent KD of K4 kissing-loop reporter for AGUGAUAUAUGAGGAUAUGGGUUAAUUAGUGAGUGAUUUUUAGUGUUGUUUGAUUAGUGAUGUUAUUUAGAAGGCGUGAGUGAUG [mvvmjmullin] .
(A) 81.9

(Q) Name the recorded apparent KD of K4 kissing-loop reporter for GUAUCGCUAGGAGGAUAUUUCAAUCCGCCUAUAAUAGGUGGUACGGAGUGAUGUUCCGAUUUACGGAAAGAAGGCCUAGUGAUAC [FMN B 16] .
(A) 297

(Q) Name the recorded apparent KD of K4 kissing-loop reporter for AGAGUUAAUUAGUCUUUUUUUACAUUAAGUCAGGAUAUCGUAUAUUCGAGAAGGGACACAUGCUAGUGAUGUUAGCUAUUUCUCA [JR_Nu_ExcFMNA_Sub019] .
(A) 47.5

(Q) Name the recorded apparent KD of K4 kissing-loop reporter for UCAUAUACCAGAAGGAGCGUGCAGGACGAAUUAAUCAUCGACCUUAGUGAUGUUAAGGACGCACAGGUAGGUCGCUGGUAUAUGA [Arg B SS t4] .
(A) 479

(Q) Name the recorded apparent KD of K4 kissing-loop reporter for CUAGGCCCUCGGCGGGACAUUGCGUGGGAAGGAGCGCAGAUAACUGCAGGUAGGUCGCCCAGUGAUGUUGGGCGAAUAUUGGUCA [Esinabige] .
(A) 124
